Could you please report measured IC50 for the items listed next?
# TARGET: TIE-2 (Homo sapiens, UniProt Q02763)
# Sequence (Q02763 23-1124, species assumed): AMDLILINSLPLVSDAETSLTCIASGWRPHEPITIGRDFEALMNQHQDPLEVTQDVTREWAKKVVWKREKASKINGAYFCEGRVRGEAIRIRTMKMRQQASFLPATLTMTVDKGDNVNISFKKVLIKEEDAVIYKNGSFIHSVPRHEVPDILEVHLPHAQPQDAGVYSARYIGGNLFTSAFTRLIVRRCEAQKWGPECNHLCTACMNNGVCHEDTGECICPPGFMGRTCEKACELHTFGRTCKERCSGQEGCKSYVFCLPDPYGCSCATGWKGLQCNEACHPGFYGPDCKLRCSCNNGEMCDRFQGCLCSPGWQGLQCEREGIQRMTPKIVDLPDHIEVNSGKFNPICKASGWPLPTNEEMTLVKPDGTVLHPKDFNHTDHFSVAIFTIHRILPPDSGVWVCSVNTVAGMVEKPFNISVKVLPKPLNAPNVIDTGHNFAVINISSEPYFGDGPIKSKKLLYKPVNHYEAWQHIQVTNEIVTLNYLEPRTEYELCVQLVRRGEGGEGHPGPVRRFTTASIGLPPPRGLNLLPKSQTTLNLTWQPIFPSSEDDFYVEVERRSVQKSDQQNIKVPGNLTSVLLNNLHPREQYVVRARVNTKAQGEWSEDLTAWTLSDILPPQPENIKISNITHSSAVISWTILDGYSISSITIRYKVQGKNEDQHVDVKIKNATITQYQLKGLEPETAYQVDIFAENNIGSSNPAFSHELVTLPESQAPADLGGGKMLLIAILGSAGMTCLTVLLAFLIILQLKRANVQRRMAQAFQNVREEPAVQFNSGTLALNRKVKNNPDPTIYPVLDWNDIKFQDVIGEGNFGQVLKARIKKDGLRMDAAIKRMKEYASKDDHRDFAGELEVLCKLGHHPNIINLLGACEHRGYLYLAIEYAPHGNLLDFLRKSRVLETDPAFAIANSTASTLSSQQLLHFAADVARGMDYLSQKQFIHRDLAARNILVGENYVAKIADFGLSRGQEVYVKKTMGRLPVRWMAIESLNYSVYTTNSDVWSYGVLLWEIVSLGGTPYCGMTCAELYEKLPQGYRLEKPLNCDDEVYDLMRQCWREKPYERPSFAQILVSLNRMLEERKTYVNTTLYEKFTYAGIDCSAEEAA
One number for each entry, in nM.

> print(dat)
                            compound.string  measured.parameter  observed.value
1  CNC(=O)c1cc(Oc2ccc(NC(=O)Nc3cc(-c4ccco4)nn3-c3ccc(F)cc3)cc2)ccn1                IC50             9.7

Below: the item to evaluate.
In: Supply recorded IC50 for "CNC(=O)c1cc(Oc2ccc(NC(=O)Nc3cc(-c4ccco4)nn3-c3ccc(C)cc3)cc2)ccn1" here.
Out: 4.3

* * *

Could you please report measured IC50 for the items listed next?
# TARGET: VEGFR (KDR) (Homo sapiens)
# Construct: cloning the cytoplasmic domain of the KDR kinase as an in frame fusion at the carboxyl terminus of the GST gene
# Sequence (P35968 786-1356 limits assumed): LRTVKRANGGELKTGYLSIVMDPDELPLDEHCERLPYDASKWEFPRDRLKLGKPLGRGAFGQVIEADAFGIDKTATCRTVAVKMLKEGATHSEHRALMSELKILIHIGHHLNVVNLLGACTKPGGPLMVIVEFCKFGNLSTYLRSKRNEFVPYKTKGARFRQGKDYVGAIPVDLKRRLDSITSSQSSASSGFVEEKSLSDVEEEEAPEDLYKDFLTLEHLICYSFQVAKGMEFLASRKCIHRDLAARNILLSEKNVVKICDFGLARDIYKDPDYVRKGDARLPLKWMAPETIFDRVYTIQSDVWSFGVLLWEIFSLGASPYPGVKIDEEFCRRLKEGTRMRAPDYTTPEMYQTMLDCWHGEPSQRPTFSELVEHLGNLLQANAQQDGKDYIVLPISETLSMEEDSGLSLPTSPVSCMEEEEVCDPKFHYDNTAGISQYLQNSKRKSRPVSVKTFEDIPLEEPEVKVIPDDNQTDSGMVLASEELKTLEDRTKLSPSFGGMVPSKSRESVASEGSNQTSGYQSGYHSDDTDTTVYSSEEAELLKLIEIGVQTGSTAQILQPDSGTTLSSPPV
# EXPERIMENT: VEGF receptor kinase assay (33P incorporation into pEY substrate)
# CONDITION DETAILS: read-out: Kinase-Inhibiting Activities IC50 VEGFR
# Experimental: VEGF receptor kinase activity is measured by incorporation of radiolabelled phosphate into 4:1 polyglutamic acid/tyrosine substrate (pEY). The phosphorylated pEY product is trapped on a filter membrane and the incorporation of radiolabelled phosphate is quantified by scintillation counting. […]
Numbers only, in µM.

> print(dat)
                            compound.string                      target  observed.value
1  CNC(=O)c1cc(Oc2ccc(NC(=O)Nc3cc(C(C)(C)C)nn3-c3cccc(C(F)(F)F)c3)cc2)ccn1  VEGFR (KDR) (Homo sapiens)           0.134
2  CNC(=O)c1cc(Oc2ccc(NC(=O)Nc3cc(-c4ccco4)nn3-c3ccc(F)cc3)cc2)ccn1  VEGFR (KDR) (Homo sapiens)          0.0748
3  CNC(=O)c1cc(Oc2ccc(NC(=O)Nc3cc(C(C)(C)C)nn3-c3ccc(C)cc3)cc2)ccn1  VEGFR (KDR) (Homo sapiens)           0.058
4  CNC(=O)c1cc(Oc2ccc(NC(=O)Nc3cc(C(C)(C)C)nn3-c3ccc(F)cc3)cc2)ccn1  VEGFR (KDR) (Homo sapiens)            0.11

Below: the item to evaluate.
In: Supply recorded IC50 for "CNC(=O)c1cc(Oc2ccc(NC(=O)Nc3cc(-c4ccco4)nn3-c3ccc(C)cc3)cc2)ccn1" here.
Out: 0.0335
